Assay notes: clinical
Condition notes: human, in vivo, po
Reported property: fraction unbound
API note: the answer field is a bare number with no unit suffix.

In: # fraction unbound lookup, item Nc1nc2ccc(OC(F)(F)F)cc2s1
Out: 0.04
